ASSAYED_TARGET: GABA-A receptor; alpha-1/beta-2/gamma-2 (Homo sapiens, UniProt P14867+P18507+P47870)
Sequence (P14867 whole entry): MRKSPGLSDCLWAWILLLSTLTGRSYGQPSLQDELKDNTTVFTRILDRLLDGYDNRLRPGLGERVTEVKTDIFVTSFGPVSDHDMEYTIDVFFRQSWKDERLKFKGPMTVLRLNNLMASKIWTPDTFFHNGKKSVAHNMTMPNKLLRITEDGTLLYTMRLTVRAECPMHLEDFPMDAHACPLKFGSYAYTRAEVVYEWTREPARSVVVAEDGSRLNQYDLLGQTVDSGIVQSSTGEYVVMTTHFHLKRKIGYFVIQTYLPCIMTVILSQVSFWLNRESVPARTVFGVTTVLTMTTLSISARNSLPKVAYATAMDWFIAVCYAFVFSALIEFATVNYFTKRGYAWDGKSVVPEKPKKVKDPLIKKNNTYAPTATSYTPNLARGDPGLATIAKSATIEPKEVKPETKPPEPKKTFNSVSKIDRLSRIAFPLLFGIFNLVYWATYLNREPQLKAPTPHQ
Sequence (P47870 whole entry): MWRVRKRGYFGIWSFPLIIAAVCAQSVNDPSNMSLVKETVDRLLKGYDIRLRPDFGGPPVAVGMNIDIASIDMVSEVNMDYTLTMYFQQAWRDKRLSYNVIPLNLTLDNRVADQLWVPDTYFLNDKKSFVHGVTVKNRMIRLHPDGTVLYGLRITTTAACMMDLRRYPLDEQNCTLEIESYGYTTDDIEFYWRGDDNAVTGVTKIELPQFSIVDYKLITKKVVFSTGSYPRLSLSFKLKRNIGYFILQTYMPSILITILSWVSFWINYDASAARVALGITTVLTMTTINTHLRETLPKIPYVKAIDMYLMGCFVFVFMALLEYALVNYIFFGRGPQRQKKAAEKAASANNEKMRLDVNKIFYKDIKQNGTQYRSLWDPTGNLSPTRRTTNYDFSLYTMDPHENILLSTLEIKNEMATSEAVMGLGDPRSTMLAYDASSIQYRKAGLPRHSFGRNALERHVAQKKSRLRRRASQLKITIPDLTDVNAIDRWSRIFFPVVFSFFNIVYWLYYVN
Sequence (P18507 whole entry): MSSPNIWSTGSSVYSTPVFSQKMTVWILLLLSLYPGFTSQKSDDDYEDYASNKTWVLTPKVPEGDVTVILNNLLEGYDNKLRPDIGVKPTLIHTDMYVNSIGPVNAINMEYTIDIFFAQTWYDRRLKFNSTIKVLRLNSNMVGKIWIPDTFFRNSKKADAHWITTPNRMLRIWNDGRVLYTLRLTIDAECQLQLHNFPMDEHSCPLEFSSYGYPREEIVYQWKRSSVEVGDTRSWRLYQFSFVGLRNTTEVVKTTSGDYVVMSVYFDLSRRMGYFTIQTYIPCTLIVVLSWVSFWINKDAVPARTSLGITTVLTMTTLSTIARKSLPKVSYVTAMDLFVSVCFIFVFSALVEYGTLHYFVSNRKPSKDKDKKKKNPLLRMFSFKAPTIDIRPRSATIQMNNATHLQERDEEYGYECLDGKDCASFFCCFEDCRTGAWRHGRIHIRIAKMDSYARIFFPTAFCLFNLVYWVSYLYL
METHOD: Displacement of [3H]flumazenil from human recombinant GABAA alpha-1-beta-2-gamma-2S receptor expressed in HEK293 cells
pKi: −log10 of the molar value.
EXPERIMENTAL_READOUT: pKi

CCOC(=O)c1cnc2ccc(CC)cc2c1O | 8.23
CCCCC(=O)c1c[nH]c2ccc(CCCc3ccccc3)cc2c1=O | 8.49
CCCCC(=O)c1c[nH]c2ccc(Cc3ccncc3)cc2c1=O | 9.41

* * *

Catalogue of Ki values
METHOD: Displacement of [3H]flumazenil from GABAA receptor in rat cortical membrane
Format: cell membranes
EXPERIMENTAL_READOUT: Ki (nM)

CCOC(=O)c1c[nH]c2ccc(Cc3ccccc3)cc2c1=O | 1.4
O=C(CC1CCCC1)c1c[nH]c2ccc(Cc3ccccc3)cc2c1=O | 1
O=C(CC1CCCC1)c1c[nH]c2ccc(Cc3cccnc3)cc2c1=O | 1.5
CCCCCC(=O)c1c[nH]c2ccc(CC)cc2c1=O | 0.98
CCCCC(=O)c1c[nH]c2ccc(Cc3ccc4ccccc4c3)cc2c1=O | 1.3
